Tested on: P. aeruginosa
assay_summary: AK assay 384-well format, Prestwick library screening
Assay type: cell-based, Pseudomonas aeruginosa
condition_info: Pseudomonas aeruginosa, 3 h; 50 μM final drug concentration; 384-well format; cutoff for positive-scoring molecules 3-fold increase; read-out: AK-based Prestwick Library Screening Results, P. aeruginosa (increase in extracellular AK activity)
Structures can show the parent of a compound that is named as a salt.
Please respond with reported fold induction at 50 µM for every item in the list.
Answers are plain numbers.

In the examples that follow, each entry is paired with its recorded fold induction at 50 µM.
CC1=C(/C=C/C(C)=C/C=C/C(C)=C\C(=O)O)C(C)(C)CCC1 : 0.8
C[C@H](N)[C@H](O)c1cccc(O)c1 [Metaraminol bitartrate] : 0.8

Give fold induction at 50 µM for each of the items listed below.
1. NS(=O)(=O)c1cc2c(cc1C(F)(F)F)NCNS2(=O)=O [Hydroflumethiazide]
2. C#C[C@]1(O)CC[C@H]2[C@@H]3CCC4=C(CCC(=O)C4)[C@H]3CC[C@@]21C
3. Nc1ccc(S(=O)(=O)c2ccc(N)cc2)cc1
4. Nc1nc(N)c2nc(-c3ccccc3)c(N)nc2n1
5. Cc1ccc(/C(=C\CN2CCCC2)c2ccccn2)cc1 [Triprolidine hydrochloride]
6. COc1cc(C)nc(-n2nc(C)cc2OC)n1 [Epirizole]
7. C#CCN(C)Cc1ccccc1 [Pargyline hydrochloride]

Reply:
1: 0.5; 2: 0.8; 3: 0.8; 4: 0.6; 5: 1; 6: 0.8; 7: 1

List reported fold induction at 50 µM for each of these compounds:
1. Nc1ccc(S(=O)(=O)Nc2nccs2)cc1
2. NC(N)=Nc1nc(CSCCC(N)=NS(N)(=O)=O)cs1
3. CC(CCc1ccccc1)NCC(O)c1ccc(O)c(C(N)=O)c1 (stereo not shown) [Labetalol hydrochloride]
4. CCCNC(C)C(=O)Nc1ccccc1C (stereo not shown) [Prilocaine hydrochloride]
5. CN(C)C/C=C(/c1ccc(Br)cc1)c1cccnc1 [Zimelidine dihydrochloride monohydrate]
6. Cn1cnc([N+](=O)[O-])c1Sc1ncnc2nc[nH]c12
7. COC(=O)Nc1nc2ccc(C(=O)c3cccs3)cc2[nH]1
8. CN(C)CCCN1c2ccccc2CCc2ccc(Cl)cc21 [Clomipramine hydrochloride]

Reply:
1. 0.6
2. 0.8
3. 0.9
4. 0.9
5. 0.6
6. 0.6
7. 0.6
8. 0.9

Below is a list of compounds. For each, state its recorded fold induction at 50 µM.
1. CC1=NS(=O)(=O)c2cc(Cl)ccc2N1 [Diazoxide]
2. CC(=O)CC(c1ccc([N+](=O)[O-])cc1)c1c(O)c2ccccc2oc1=O (stereo not shown)

Reply:
1: 0.4; 2: 0.9

---

Answer each item with its documented fold induction at 50 µM.
Tested on: E. faecium
assay_summary: AK assay 384-well format, Prestwick library screening
Format: cell-based, Enterococcus faecium
condition_info: Enterococcus faecium, 3 h, planktonic E. faecium; 50 μM final drug concentration; […]; read-out: AK-based Prestwick Library Screening Results, E. faecium (increase in extracellular AK activity)
Where a name gives a salt, the structure may show the parent alone.
One number for each entry.

C[C@H]1CC[C@]2(NC1)O[C@H]1C[C@H]3[C@@H]4CC[C@H]5C[C@@H](O)CC[C@]5(C)[C@H]4CC[C@]3(C)[C@H]1[C@@H]2C : 1.2
C[C@]12CC[C@H](O)C[C@H]1CC[C@@H]1[C@@H]2CC[C@]2(C)[C@@H](C3=CC(=O)OC3)CC[C@]12O : 0.9
CN1[C@@H]2CC[C@H]1C[C@@H](OC(=O)C(CO)c1ccccc1)C2 (stereo partly drawn) [Atropine sulfate monohydrate] : 0.8
COc1cc2c(cc1O)C[C@H]1c3c(cc(O)c(OC)c3-2)CCN1C : 0.9
Nc1ncnc2c1ncn2[C@@H]1O[C@H](COP(=O)(O)O)[C@@H](O)[C@H]1O [Adenosine 5′-monophosphate monohydrate] : 0.8

// switching to the query compound
Ask: Fill blank: measured fold induction at 50 µM of the compound `COc1ccc2c(c1)[C@]13CCCC[C@@H]1[C@H](C2)N(C)CC3` is ____.
Reply: 0.9

---

Tested on: E. faecium
assay_summary: AK assay 384-well format, Prestwick library screening
Type: cell-based, Enterococcus faecium
condition_info: Enterococcus faecium, 3 h; planktonic E. faecium; 50 μM final drug concentration; 384-well; cutoff for positive-scoring molecules 3-fold increase; read-out: AK-based Prestwick Library Screening Results: E. faecium (increase in extracellular AK activity)
Structures can show the parent of a compound that is named as a salt.
measurement_label: fold induction at 50 µM
One number for each entry.

Solved cases below.
CCCCc1oc2ccccc2c1C(=O)c1cc(I)c(OCCN(CC)CC)c(I)c1 [Amiodarone hydrochloride] : 1.7
O=c1n(CCCN2CCN(c3cccc(Cl)c3)CC2)nc2ccccn12 [Trazodone hydrochloride] : 1
O=C(CCCN1CCC2(CC1)C(=O)NCN2c1ccccc1)c1ccc(F)cc1 : 1.2
O=C(COc1ccc(Cl)cc1)N1CCN(Cc2ccc3c(c2)OCO3)CC1 [Fipexide hydrochloride] : 1.1
CCc1cccc2c3c([nH]c12)C(CC)(CC(=O)O)OCC3 (centres unmarked) : 1.1

Go through the items and report each one's fold induction at 50 µM.
1. COC(=O)C1=C(C)NC(C)=C(C(=O)OC)C1c1ccccc1[N+](=O)[O-]
2. O=C1C(CC[S+]([O-])c2ccccc2)C(=O)N(c2ccccc2)N1c1ccccc1 (centres unmarked)
3. C[C@H](CCC(=O)O)[C@H]1CC[C@H]2[C@@H]3[C@H](O)C[C@@H]4C[C@H](O)CC[C@]4(C)[C@H]3CC[C@]12C

Reply:
[0.9, 1.1, 1]

---

I'd be grateful if you could share measured fold induction at 50 µM for these entries.
System: S. aureus strain USA300-0114
assay_summary: AK assay 384-well format, Prestwick library screening
Assay type: cell-based, Staphylococcus aureus
condition_info: Staphylococcus aureus, USA300, 3 h; 50 μM final drug concentration; cutoff for positive-scoring molecules 3-fold increase; read-out: AK-based Prestwick Library Screening Results, S. aureus (fold increase in extracellular AK activity)
Structures can show the parent of a compound that is named as a salt.
One number for each entry.

Here is how some compounds turned out for fold induction at 50 µM.
CCC(=O)OCC(=O)[C@@]1(OC(=O)CC)[C@@H](C)C[C@H]2[C@@H]3CCC4=CC(=O)C=C[C@]4(C)[C@@]3(Cl)[C@@H](O)C[C@@]21C [Beclomethasone dipropionate] : 0.5
Cn1cnc2c1c(=O)[nH]c(=O)n2C : 1.3
Cc1cc2cc3c(C)cc(=O)oc3c(C)c2o1 : 0.9
CC[N+](CC)(CC(=O)Nc1c(C)cccc1C)Cc1ccccc1 [Denatonium benzoate] : 0.4
NS(=O)(=O)c1cc2c(cc1C(F)(F)F)NC(Cc1ccccc1)NS2(=O)=O (centres unmarked) [Bendroflumethiazide] : 1.3

Here are 3 compounds. What values of fold induction at 50 µM were reported for them?
1. Cc1ccc(C(=O)c2ccc(CC(=O)O)n2C)cc1 [Tolmetin sodium salt dihydrate]
2. S=C(NC1CCCCC1)N1CCC(c2cnc[nH]2)CC1 [Thioperamide maleate]
3. CC(C)NCC(O)c1ccc(NS(C)(=O)=O)cc1 (centres unmarked) [Sotalol hydrochloride]

Reply:
1: 0.9; 2: 1.1; 3: 0.4

---

Assignment: determine reported fold induction at 50 µM for the given compounds.
Test system: E. coli
assay_summary: AK assay 384-well format, Prestwick library screening
Format: cell-based, Escherichia coli
condition_info: Escherichia coli, 3 h; 50 μM final drug concentration; cutoff for positive-scoring molecules 3-fold increase; read-out: AK-based Prestwick Library Screening Results, E. coli (fold increase in extracellular AK activity)
Structures can show the parent of a compound that is named as a salt.
Answers are plain numbers.

CCC(Cc1c(I)cc(I)c(N)c1I)C(=O)O (stereo not shown) : 0.6
c1ccc2c(c1)OCC(C1=NCCN1)O2 (stereo not shown) [Idazoxan hydrochloride] : 1.1
Nc1ccc(S(=O)(=O)Nc2ccc(Cl)nn2)cc1 : 1
CC(=O)Nc1ccc(O)cc1 : 1.4
CN(C)CCCN1c2ccccc2Sc2ccccc21 [Promazine hydrochloride] : 1.2

Hi! Can you tell me fold induction at 50 µM for each of these compounds?
1. NC(CO)C(=O)NNCc1ccc(O)c(O)c1O (stereo not shown) [Benserazide hydrochloride]
2. NC[C@@H]1O[C@H](O[C@H]2[C@@H](O)[C@H](O[C@@H]3[C@@H](O)[C@H](N)C[C@H](N)[C@H]3O[C@H]3O[C@H](CO)[C@@H](O)[C@H](O)[C@H]3N)O[C@@H]2CO)[C@H](N)[C@@H](O)[C@@H]1O [Paromomycin sulfate]
3. Clc1ccc(C(Cn2ccnc2)OCc2csc3c(Cl)cccc23)c(Cl)c1 (stereo not shown) [Sertaconazole nitrate]
4. CO[C@@]1(NC(=O)CSCC#N)C(=O)N2C(C(=O)O)=C(CSc3nnnn3C)CS[C@@H]21 [Cefmetazole sodium salt]
5. CCCOc1ccc(C(=O)OCCN(CC)CC)cc1N [Proparacaine hydrochloride]

Reply:
1. 1.3
2. 1.4
3. 0.7
4. 20
5. 1.3

Look up fold induction at 50 µM for the entries below, preserving their order.
1. CC(=O)c1ccc2c(c1)N(CCCN1CCC(CCO)CC1)c1ccccc1S2
2. C=C1c2cccc(O)c2C(=O)C2=C(O)[C@]3(O)C(=O)C(C(N)=O)=C(O)[C@@H](N(C)C)[C@@H]3[C@@H](O)[C@H]12 [Methacycline hydrochloride]
3. CC(C)(C)NC[C@H](O)COc1ccccc1C1CCCC1 [Penbutolol sulfate]
4. O=C(CCCCC(=O)Nc1c(I)cc(I)c(C(=O)O)c1I)Nc1c(I)cc(I)c(C(=O)O)c1I [Iodipamide]
5. CCOC(=O)[C@H](CCc1ccccc1)N[C@@H](C)C(=O)N1Cc2ccccc2C[C@H]1C(=O)O [Quinapril HCl]
6. NC(N)=NCCCCN=C(N)N [Arcaine sulfate]

Reply:
1: 0.5; 2: 3.2; 3: 0.5; 4: 1.2; 5: 1.2; 6: 0.7
